- Test system: - MDAMB-231
- protocol-text: Antiproliferative assay (MTT) MDAMB-231
- experimental-conditions: MDAMB-231, 12.5 µM
parameter: Average of Relative viability of cells (%)
A number alone suffices; assume %.

Please review the following examples before continuing.
Cc1nc(SCC(=O)Nc2nc(-c3ccc(Cl)cc3)cs2)sc1C(=O)/C=C/c1ccc(F)cc1 [Compound 10h] = 47.4
COc1ccc(/C=C/C(=O)c2sc(SCC(=O)Nc3nc(-c4ccc(C)cc4)cs3)nc2C)cc1 [Compound 10o] = 26.7
Cc1nc(SCC(=O)Nc2nccs2)sc1C(=O)/C=C/c1ccc(F)cc1 [Compound 13c] = 54.8

We now examine a further compound.
Task: So what's the measured Average of Relative viability of cells (%) for this one? Cc1nc(SCC(=O)Nc2nc(-c3ccc(Cl)cc3)cs2)sc1C(=O)/C=C/c1ccccc1 [Compound 10f]
Result: 38.7

---

- System: tubulin
- protocol-text: Tubulin polymerization inhibition assay (Cytoskeleton kit);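 note: Cell-free tubulin polymerization read by fluorescent reporter enhancement over a 30 min reaction, with the compound-free kit control taken as 100% activity and inhibition relative to it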
- experimental-conditions: conc 100 (unit not given), control = 120, codes 522-537 run
Criterion: Tub. enzyme inhibition assay K. Activity meeting or surpassing 20. Met: rule met. Not met: rule not met.

Cc1ccc(/C=C/C(=O)c2sc(SCC(=O)Nc3nc(-c4ccc(C)cc4)cs3)nc2C)cc1 [Compound 10n] = rule met
Cc1ccc(/C=C/C(=O)c2sc(SCC(=O)Nc3nccs3)nc2C)cc1 [Compound 13d] = rule not met
COc1ccc(/C=C/C(=O)c2sc(SCC(=O)Nc3nc(-c4ccc(Cl)cc4)cs3)nc2C)cc1 [Compound 10j] = rule met
Cc1ccc(-c2csc(NC(=O)CSc3nc(C)c(C(=O)/C=C/c4ccccc4)s3)n2)cc1 [Compound 10k] = rule met

Task: Hi team, for Cc1nc(SCC(=O)Nc2nc(-c3ccc(Cl)cc3)cs2)sc1C(=O)/C=C/c1ccccc1 [Compound 10f] , is the recorded Tub. enzyme inhibition assay K. Activity at or above 20?
Result: rule not met

---

- Tested on: colon - HCT-116
- protocol-text: Antiproliferative assay (MTT) HCT-116
- experimental-conditions: HCT-116, 1.56 µM
parameter: Average of Relative viability of cells (%)
Value and unit, in that order.

Please review the following examples before continuing.
Cc1ccc(-c2csc(NC(=O)CSc3nc(C)c(C(=O)/C=C/c4ccc(F)cc4)s3)n2)cc1 [Compound 10m] = 100%
Cc1ccc(/C=C/C(=O)c2sc(SCC(=O)Nc3nccs3)nc2C)cc1 [Compound 13d] = 90.6%
Cc1ccc(/C=C/C(=O)c2sc(SCC(=O)Nc3nc(-c4ccccc4)cs3)nc2C)cc1 [Compound 10d] = 100%
Cc1nc(SCC(=O)Nc2nccs2)sc1C(=O)/C=C/c1ccc(F)cc1 [Compound 13c] = 100%
Cc1nc(SCC(=O)Nc2nccs2)sc1C(=O)/C=C/c1ccc(Cl)cc1 [Compound 13b] = 100%

Task: So what's the measured Average of Relative viability of cells (%) for this one? COc1ccc(/C=C/C(=O)c2sc(SCC(=O)Nc3nc(-c4ccc(C)cc4)cs3)nc2C)cc1 [Compound 10o]
Result: 89.1%

Task: Same thing, different compound: Cc1nc(SCC(=O)Nc2nc(-c3ccc(Cl)cc3)cs2)sc1C(=O)/C=C/c1ccc(F)cc1 [Compound 10h]
Result: 100%

Task: Same thing, different compound: Cc1nc(SCC(=O)Nc2nc(-c3ccc(Cl)cc3)cs2)sc1C(=O)/C=C/c1ccccc1 [Compound 10f]
Result: 100%

Values were extracted from paper PMC12040969.
